meta.source: PubChem BioAssay (NCI)

system: 786-0 renal; assay: NCI-60 one-dose screen, 48 h; conditions: 10 µM unless noted
This is part of a sample that, as a whole, favours compounds with a hit. Of some 83,000 tested, about 20% had one in any assay. Calls of active or inactive are those of the source. How the source made its calls: active means growth percent below 10; inactive means the rest.
Mark one answer only. Choices: active, inactive

Worked set:
{"Compound": "CCCCCCCCCCCCCCCCOP(=O)([O-])OCC[N+](C)(C)C", "Answer Label": "inactive"}
{"Compound": "Cc1ccnc2c1ccc1c(C)ccnc12", "Answer Label": "active"}
{"Compound": "CCOc1ccc(-c2nc3ccc(-c4nc5ccc(N6CCN(C)CC6)cc5[nH]4)cc3[nH]2)cc1", "Answer Label": "active"}
{"Compound": "OC(CNc1ccnc2cc(Cl)ccc12)CNc1ccnc2cc(Cl)ccc12", "Answer Label": "inactive"}
{"Compound": "CCC(CCCN(CC)CCc1ccccc1)OC(=O)c1cc(OC)c(OC)c(OC)c1 (stereo unspecified)", "Answer Label": "inactive"}

Q. So what was the verdict on CNc1ccc2c(c1)c1ccccc1n2C in this test?
A. inactive

###

test system: CAKI-1 renal; experiment: NCI-60 one-dose screen, 48 h; details: 10 µM unless noted
The panel holds about 83,000 compounds, 20% with a hit somewhere; the sample as a whole holds those more often. Activity calls are given as the source filed them. How the source made its calls: active means growth percent below 10; inactive means the rest.
Mark one answer only. Choices: true (1) for active, false (0) for inactive

Worked set:
{"Molecule": "O=C(O)c1ccc2c3c(ncnc13)-c1ccccc1C2=O", "Answer Label": "false (0)"}
{"Molecule": "CCCCCCCCCCCCCCCCN(CC)CC", "Answer Label": "true (1)"}
{"Molecule": "CC(=Nc1ccc(N(C)C)cc1)c1ccccc1", "Answer Label": "false (0)"}
{"Molecule": "Cc1cc2nc(CS)[nH]c2cc1C", "Answer Label": "false (0)"}
{"Molecule": "S=C(N/N=C/c1ccccn1)Nc1ccccn1", "Answer Label": "false (0)"}
{"Molecule": "Nc1nc(N)c2c(ccc3c2ccn3Cc2cccc([N+](=O)[O-])c2)n1", "Answer Label": "true (1)"}
{"Molecule": "CCC1OC(OC)C=CC1=O (configuration not stated)", "Answer Label": "false (0)"}
{"Molecule": "CC(C)c1ccc2nc3ccc(C(=O)NCCN4CCN(c5ccccc5)CC4)cn3c(=O)c2c1", "Answer Label": "false (0)"}

Q. So what was the verdict on Cc1ccc2nc(-[n+]3cc4ccccc4cc3C)ccc2c1 in this test?
A. false (0)

###

system: HT29 colon; test: NCI-60 one-dose screen, 48 h (100 = growth as untreated, 0 = no growth, -100 = all killed); conditions: 10 µM unless noted
Compounds without any hit were thinned out: in the full panel of roughly 83,000, 20% have a hit.
Recorded growth, one value per entry.
Give the number; % is assumed, so skip it.

Worked set:
{"Compound": "CCOc1ccc(-c2nc3ccc(-c4nc5ccc(N6CCN(C)CC6)cc5[nH]4)cc3[nH]2)cc1", "growth (%)": -68.3}
{"Compound": "CC(=Nc1ccc(N(C)C)cc1)c1ccccc1", "growth (%)": 35.2}
{"Compound": "O=C(/C=C\\c1cc(Br)ccc1O)/C=C/c1cc(Br)ccc1O", "growth (%)": -54.2}
{"Compound": "N#CC1C(=O)SC2c3ccccc3C(=O)c3ccccc3C12 (stereo unspecified)", "growth (%)": 97.7}
{"Compound": "NC(=O)/C=C/C(=O)c1c(Cl)cccc1Cl", "growth (%)": -39.6}

Continue with the next compound.
Q. Would you please give the reported growth of Cc1c2ccccc2c(C)c2c1ccc1ccccc12 with HT29 colon?
A. 92.9
